Source: patent US9840513B2

test target: F508delCFTR in primary hBE cells with F508del/F508del CFTR mutation (Homo sapiens, UniProt P13569, DEL508-508)
Construct: cells isolated from CF patients with the homozygous mutation; endogenous in cells; host or cells: primary human bronchial epithelial (hBE) cells from F508del/F508del CF patients
Sequence (P13569 with tags, fused parts or gaps DEL508-508): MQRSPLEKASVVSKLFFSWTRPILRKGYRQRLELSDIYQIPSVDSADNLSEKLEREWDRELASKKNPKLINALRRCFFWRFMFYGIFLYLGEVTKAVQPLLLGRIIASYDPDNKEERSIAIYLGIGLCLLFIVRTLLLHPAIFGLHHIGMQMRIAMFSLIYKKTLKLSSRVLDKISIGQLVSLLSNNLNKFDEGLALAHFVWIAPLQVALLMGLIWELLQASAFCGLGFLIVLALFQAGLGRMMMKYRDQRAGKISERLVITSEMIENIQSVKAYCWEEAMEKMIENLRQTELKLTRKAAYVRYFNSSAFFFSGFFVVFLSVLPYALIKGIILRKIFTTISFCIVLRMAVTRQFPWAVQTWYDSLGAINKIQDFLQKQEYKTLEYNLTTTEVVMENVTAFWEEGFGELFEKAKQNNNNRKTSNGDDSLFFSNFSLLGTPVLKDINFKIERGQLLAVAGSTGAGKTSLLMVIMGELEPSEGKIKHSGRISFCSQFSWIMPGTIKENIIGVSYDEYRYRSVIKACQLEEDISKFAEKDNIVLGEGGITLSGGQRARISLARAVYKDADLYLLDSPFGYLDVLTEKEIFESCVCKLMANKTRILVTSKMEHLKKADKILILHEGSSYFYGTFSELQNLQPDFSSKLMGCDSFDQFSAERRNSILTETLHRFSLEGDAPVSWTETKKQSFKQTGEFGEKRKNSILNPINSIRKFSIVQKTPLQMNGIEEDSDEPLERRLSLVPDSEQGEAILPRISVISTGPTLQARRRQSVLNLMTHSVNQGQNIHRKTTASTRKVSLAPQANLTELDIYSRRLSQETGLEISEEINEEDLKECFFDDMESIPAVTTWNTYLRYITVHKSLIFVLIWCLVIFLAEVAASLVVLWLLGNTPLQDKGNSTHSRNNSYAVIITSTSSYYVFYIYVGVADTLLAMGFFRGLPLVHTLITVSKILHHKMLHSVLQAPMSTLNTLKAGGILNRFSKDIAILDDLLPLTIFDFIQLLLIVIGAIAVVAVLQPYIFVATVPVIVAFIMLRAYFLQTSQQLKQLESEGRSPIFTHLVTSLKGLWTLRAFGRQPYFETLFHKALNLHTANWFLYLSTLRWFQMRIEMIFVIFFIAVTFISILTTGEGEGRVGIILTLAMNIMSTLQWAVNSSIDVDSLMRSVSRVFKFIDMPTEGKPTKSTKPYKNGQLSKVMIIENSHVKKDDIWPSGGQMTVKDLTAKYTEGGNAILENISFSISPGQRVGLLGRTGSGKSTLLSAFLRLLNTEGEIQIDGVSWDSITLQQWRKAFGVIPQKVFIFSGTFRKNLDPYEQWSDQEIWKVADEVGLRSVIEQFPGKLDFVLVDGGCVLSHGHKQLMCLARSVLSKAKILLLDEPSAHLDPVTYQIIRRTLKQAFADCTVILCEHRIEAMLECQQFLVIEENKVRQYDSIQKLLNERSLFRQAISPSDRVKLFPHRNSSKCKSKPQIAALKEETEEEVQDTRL
assay details: Transepithelial Clamp Circuit on Human Bronchial Epithelial Cells Conductance Assay (hBE-TECC)
Format: cell-based
test context: relative to positive control (3 μM) coupled with control potentiator
test readout: Maximum % activity (%)
Your answer is read as %, so omit the unit and give the number.

Ask | Tell me the measured Maximum % activity (%) of COc1ccc2c(c1)O[C@@H]([C@H]1CC[C@H](C(=O)N3C[C@H](O)[C@@H](O)C3)CC1)C[C@H]2NC(=O)[C@@]1(C)COc2cc3c(cc21)OC(F)(F)O3 [Example 281] , please.
Reply | 134

Ask | Tell me the measured Maximum % activity (%) of COc1ccc2c(c1)O[C@@H](c1ccc(C(=O)N3C[C@@H](O)[C@H](O)C3)cn1)C[C@H]2NC(=O)[C@@]1(C)COc2cc3c(cc21)OC(F)(F)O3 [Example 248] , please.
Reply | 105

Ask | Tell me the measured Maximum % activity (%) of COc1ccc2c(c1)O[C@@H](c1ccc(C(=O)N3CCOCC3)cn1)C[C@H]2NC(=O)[C@@]1(C)COc2cc3c(cc21)OC(F)(F)O3 [Example 220] , please.
Reply | 94

***
Ask | Tell me the measured Maximum % activity (%) of Cc1ccc(NC(=O)[C@@]2(C)COc3cc4c(cc32)OC(F)(F)O4)nc1-c1cccc(C(=O)O)c1 [Example 6] , please.
Reply | 103

Ask | Tell me the measured Maximum % activity (%) of COc1ccc2c(c1)O[C@@H](c1cnc(C(O)CO)cn1)C[C@H]2NC(=O)[C@@]1(C)COc2cc3c(cc21)OC(F)(F)O3 (stereo partly shown) [Example 175] , please.
Reply | 107

Ask | Tell me the measured Maximum % activity (%) of C[C@]1(C(=O)N[C@@H]2C[C@H]([C@H]3CC[C@H](C(=O)O)CC3)Oc3cc(OC(F)F)ccc32)COc2cc3c(cc21)OC(F)(F)O3 [Example 160] , please.
Reply | 85

Ask | Tell me the measured Maximum % activity (%) of C[C@]1(C(=O)N[C@@H]2C[C@H]([C@H]3CC[C@H](C(=O)O)CC3)Oc3cc(OC(F)(F)F)ccc32)CCc2cc3c(cc21)OC(F)(F)O3 [Example 167] , please.
Reply | 112

Ask | Tell me the measured Maximum % activity (%) of COc1ccc2c(c1)O[C@@H](c1cnc(C(=O)O)cn1)C[C@H]2NC(=O)[C@@]1(C)COc2cc3c(cc21)OC(F)(F)O3 [Example 144] , please.
Reply | 78

Ask | Tell me the measured Maximum % activity (%) of COc1ccc2c(c1)O[C@@H](c1cnc([C@H](O)CO)cn1)C[C@H]2NC(=O)[C@@]1(C)COc2cc3c(cc21)OC(F)(F)O3 (single isomer, unassigned) [Example 192] , please.
Reply | 103

Ask | Tell me the measured Maximum % activity (%) of COc1ccc2c(c1)O[C@@H]([C@H]1CC[C@H](C(=O)O)CC1)C[C@H]2NC(=O)[C@@]1(C)COc2cc3c(cc21)OC(F)(F)O3 [Example 155] , please.
Reply | 102
